These data points were gathered from the METLIN SMRT retention time set (Domingo-Almenara et al. 2019).

# assay.details: gradient 5% acetonitrile 3 min, to 50% in 2 min, to 85% in 15 min, held 3 min, 100 µL/min
# experimental.context: column: Zorbax Extend-C18 2.1 x 50 mm; eluents: water / acetonitrile, 0.1% formic acid
assay.metric: RP-LC retention time (s)
Respond with the bare value in s.

Ask: Reported RP-LC retention time, molecule `O=c1n(Cc2ccc(F)cc2)nc2ccc(S(=O)(=O)N3CCCC3)cn12` : ____
Result: 855

Ask: Reported RP-LC retention time, molecule `Cc1ccc(-c2nnc(N3CCC(C(=O)NCCN4CCOCC4)CC3)o2)cc1` : ____
Result: 614

Ask: Reported RP-LC retention time, molecule C=C1C(=O)C23CC[C@@H]4C(C)(C(=O)OC)CCCC4(C)[C@@H]2CCC1(O)C3 (stereo not given in full) : ____
Result: 902

Ask: Reported RP-LC retention time, molecule `CCCCCCOc1ccccc1C(N)=O` : ____
Result: 1040

Ask: Reported RP-LC retention time, molecule `Cc1nc(-c2ccc3c(c2)n(CC(=O)Nc2ccc(S(N)(=O)=O)cc2)c(=O)n3C(C)C)no1` : ____
Result: 707

Ask: Reported RP-LC retention time, molecule Cn1nccc1C(=O)N1CCCC1c1ccc(Cl)cc1 (stereo not given) : ____
Result: 817

Ask: Reported RP-LC retention time, molecule `Cc1ccc([N+](=O)[O-])cc1NC(=O)Nc1cccc(F)c1` : ____
Result: 1010

Ask: Reported RP-LC retention time, molecule `O=C(C1CCC1)N1CCc2sc(S(=O)(=O)NCc3ccc4c(c3)OCO4)cc2C1` : ____
Result: 836

Ask: Reported RP-LC retention time, molecule `CCc1nc(-n2cccc2)sc1C(=O)Nc1ccc(Cl)cc1` : ____
Result: 1180

Ask: Reported RP-LC retention time, molecule CSc1ccccc1NC(=O)C(=O)NCC(C)(O)c1ccco1 (stereo not given) : ____
Result: 995

Ask: Reported RP-LC retention time, molecule `O=C(CSc1nccn1-c1ccc(Cl)cc1)NCc1ccco1` : ____
Result: 655

Ask: Reported RP-LC retention time, molecule `CCOc1ccc(-c2csc(C)n2)cc1S(=O)(=O)NCc1ccccc1` : ____
Result: 996

Ask: Reported RP-LC retention time, molecule `CN(C)C(=O)c1cn(C2CN(S(=O)(=O)c3ccc4c(c3)CCC4)C2)nn1` : ____
Result: 774

Ask: Reported RP-LC retention time, molecule `COc1ccc(-n2ccn3cc(-c4cccc(Cl)c4)nc3c2=O)cc1` : ____
Result: 873

Ask: Reported RP-LC retention time, molecule `COc1ccc2nc(C(=O)NCc3ccccc3F)cn2n1` : ____
Result: 806

Ask: Reported RP-LC retention time, molecule `O=C(C1=CN(c2cccc(F)c2)c2cc(Cl)ccc2S1(=O)=O)N1CCOCC1` : ____
Result: 825

Ask: Reported RP-LC retention time, molecule `Cc1nc(-c2noc(-c3ccc(F)cc3)n2)cn1CC(=O)NCc1ccc(F)cc1` : ____
Result: 832

Ask: Reported RP-LC retention time, molecule `O=C(CN1CCN(c2ccc(Cl)cc2)C1=O)N1CCN(C(=O)c2ccco2)CC1` : ____
Result: 695

Ask: Reported RP-LC retention time, molecule `Cc1nc(-c2cccnc2)nc2c1CCC(=O)N2CC1CCCCC1` : ____
Result: 963

Ask: Reported RP-LC retention time, molecule `Cc1ccc2c(C(=O)Nc3ccc(N4CCOCC4)cc3)cc(NC(=O)C(C)C)cc2n1` : ____
Result: 618
